target: GALT; assay: pooled miR-30 sensor sort-seq; sequence = guide strand; conditions: shRNA
observed_property: sensor-assay potency score (higher = more potent)
The answer should be written as a number, with no unit following it.

For the sequence "TGAATTTCCGGACAGTGGCAGA" , give its reported sensor-assay potency score (higher = more potent).
-0.779

Give the reported value of sensor-assay potency score (higher = more potent) for this record: "TAGCAGGGGCTCTCCATGCTGA"
-0.945

Determine its reported sensor-assay potency score (higher = more potent): "ATATCTGGCAGGAAACTGCTGG"
-0.342

For the sequence "TTGCCCGGAAGGTTGCTGCTGC" , give its measured sensor-assay potency score (higher = more potent) value.
-0.354

Give recorded sensor-assay potency score (higher = more potent). "TATAGGCCTGCTGAGATCGCTC"
-0.708

----------
molecular target: HOOK2; experiment: pooled miR-30 sensor sort-seq; sequence = guide strand; conditions: shRNA
sensor-assay potency score (higher = more potent) of -0.2 or higher: class 1. Under -0.2: class 0.

Reference set, count: 5
In [3]: df
Out[3]:
            sequence_data  assigned_category
0  TCCTCTGCAACTCCAGATCTGC            class 0
1  TCACTTAGGAAATAGTACCTGC            class 0
2  TCAGCTTCCAGTTGGGACCTGG            class 1
3  TACTAGGCTCCGTAAGACCATC            class 0
4  TTCTGACACAGGATGCGCCAGG            class 0

Is it the case that "TTAGGAAATAGTACCTGCGGGA" has sensor-assay potency score (higher = more potent) reaching or exceeding -0.2?
class 1

Could you verify whether the entry "ATGGTCTGCATGACCATGCGGG" shows sensor-assay potency score (higher = more potent) of no less than -0.2?
class 0

Could you please find out whether "TGGAACGTCTGTAACCAGGTGA" has sensor-assay potency score (higher = more potent) that meets -0.2 or exceeds it?
class 1

Kindly determine if sensor-assay potency score (higher = more potent) recorded for "TTCCATGGTCTGCATGACCATG" is above or exactly -0.2.
class 0

----------
target: DICER1; assay: pooled miR-30 sensor sort-seq; sequence = guide strand; conditions: shRNA
Tag: t if measured sensor-assay potency score (higher = more potent) is not below 0.3, f if it is.

>>> df
            sequence_data  assigned_category
0  TTGACCAAGAACACCGTCCTTT                  f
1  TGTAACTTCGACCAACACCTTT                  f
2  TTAGATTGAACATAGGATCGAT                  t
3  TAGATTGAACATAGGATCGATA                  f
4  TTATTCTTGAATCTGTAGTTGA                  f

Decide: sensor-assay potency score (higher = more potent) of "TTATTTTGTCTGTATCCGCTAA" >= 0.3?
f

Say whether "TTTTCTTTACAAAAGCTCCTGA" shows sensor-assay potency score (higher = more potent) of 0.3 or more.
t

Please check the record "TATAAATCTGATATGTTCCTGA" and state if its sensor-assay potency score (higher = more potent) is at or above 0.3.
t

----------
# sensor-assay potency score (higher = more potent) annotations
target: P4HA2; assay: pooled miR-30 sensor sort-seq; sequence = guide strand; conditions: shRNA
Give your answer as a number; write no unit.

            sequence_data  test_value
0  TTGCAACCTGTAACAATTCTGC      -0.407
1  TTGTACCAGAACACAGCTGTAC      -0.305

For the sequence "TTAAGAAACGTCGCTAACCTAT" , give its measured sensor-assay potency score (higher = more potent) value.
-0.763

For the sequence "TTGCCTGGTACTTGGTTCCTGG" , give its reported sensor-assay potency score (higher = more potent).
-0.843

Read the entry "TTAGGTTTTGCGATCTCCTTGA" and write its reported sensor-assay potency score (higher = more potent).
0.73

State its sensor-assay potency score (higher = more potent): "TTATTGGAGACCCACTTGCAGC"
-1.45

Please report sensor-assay potency score (higher = more potent) for the following sequence: "TTTAGGTTTTGCGATCTCCTTG"
-0.309

----------
Listing of recorded sensor-assay potency score (higher = more potent) by entry.
biological target: ULK1; assay: pooled miR-30 sensor sort-seq; sequence = guide strand; settings: shRNA
Would you mind answering with just the numeric figure?

>>> df
            sequence_data  test_value
0  TTGCTCTGGAGGTACCGCGCGA      -0.555
1  TTGTTCTTCTCGTAGAACAGGC      -0.479
2  TTGTACAGCTCATTCAGCCTGC        0.11

Identify measured sensor-assay potency score (higher = more potent) corresponding to "TTCTTCTTGTTAATGCACTTGA"
0.0356

Note sensor-assay potency score (higher = more potent) for the sequence shown: "TTCAGGTACAGCACCAGCTGTT"
-0.477

Determine its reported sensor-assay potency score (higher = more potent): "TTGCGGGAGAACTCGAACTTGC"
-0.945

Query sensor-assay potency score (higher = more potent) for "ATCAAGAGAACATTCAACCAGG"
-0.0767

Item "ATGTGTATGTACAAACACCAGG" : provide sensor-assay potency score (higher = more potent)
-1.55

Identify the reported sensor-assay potency score (higher = more potent) for the following entry. "TTCTTCTCGTAGAACAGGCGCA"
-0.466

----------
target: KIAA0664; test: pooled miR-30 sensor sort-seq; sequence = guide strand; conditions: shRNA
Mark condition not met for sensor-assay potency score (higher = more potent) values under -0.07, and condition met for everything at or above.

The examples below pair each entry with its known result.
>>> df
            sequence_data  assigned_category
0  TTGAGCACGTCCTCCTCGGTGA  condition not met
1  TACGTCTTGAAGATGTGCTTGG      condition met
2  TTTTCTTCTGCAGCACAGCGAA  condition not met
3  TTGACGTGCTTGACCACGGGGA      condition met
4  TGCATCTTGGTCTCCTCGCTGG  condition not met

Turning now to a further record.
# bool: sensor-assay potency score (higher = more potent) of "AAGTTCTTCTTGAAGGTCGGGC" >= -0.07
condition met

----------
Here the recorded sensor-assay potency score (higher = more potent) is given for each entry.
target: SDHAF1; test: pooled miR-30 sensor sort-seq; sequence = guide strand; details: shRNA

In [3]: df
Out[3]:
            sequence_data  target_desc  test_value
0  TCCTTGGACTGTCGCCGTCGTC       SDHAF1       -1.69

Give recorded sensor-assay potency score (higher = more potent). "TCGTGGGGGTTCCTTGGACTGT"
-2.02

Give the value of sensor-assay potency score (higher = more potent) reported for the following: "ATGCTGCCGGAACTCTGCCCGC"
-1.77

----------
molecular target: C1orf168; assay: pooled miR-30 sensor sort-seq; sequence = guide strand; settings: shRNA
observed_property: sensor-assay potency score (higher = more potent)

>>> df
            sequence_data  test_value
0  TTCTAGGAGAGAAACTTTCTGA      -0.177
1  TATCACTAGATTTTGTTCGGTG       0.284
2  TTGATGACAATAATCTCTTTGT      -0.247

Return value of sensor-assay potency score (higher = more potent) for input "TTGACATGTAAACTGAAACTGA" , no commentary.
-0.315

Answer with the recorded sensor-assay potency score (higher = more potent) for the sequence listed here: "TTTGTTTCCAGCTTTTTCCTGG"
0.241

For the sequence "TAGAAGCAAACTAACCATCTGC" , report sensor-assay potency score (higher = more potent).
0.515

----------
target: FNDC5; assay: pooled miR-30 sensor sort-seq; sequence = guide strand; details: shRNA
sensor-assay potency score (higher = more potent) below -0.9 gives false (0); sensor-assay potency score (higher = more potent) at or above it gives true (1).

Solved entries:
>>> df
            sequence_data  target_desc  assigned_category
0  TTGTCCAAGCTAGCATTTCTGA        FNDC5          false (0)
1  TTGGTCTGAAAGACACAGCTTG        FNDC5           true (1)
2  TTTTTCCTTGTTGTTATTGGGT        FNDC5           true (1)
3  TAGCCAGAGCTGCTCTTCCTGT        FNDC5          false (0)

Turning now to a further sequence:
Hi, just wondering whether "TTGATGATGTCATACTGGCGGC" shows sensor-assay potency score (higher = more potent) of -0.9 or higher.
true (1)

----------
target: NCSTN; assay: pooled miR-30 sensor sort-seq; sequence = guide strand; conditions: shRNA
observed_property: sensor-assay potency score (higher = more potent)
# output: bare number, no unit

Worked examples, 3 sequences total:
            sequence_data  test_value
0  TACTGTACAACATAAGTGGTGT       0.405
1  TCAGCCTGAACTGTGTCGCTGA       0.319
2  TTAAACAGGAGCAAGAAGCTTC      -0.218

Identify the reported sensor-assay potency score (higher = more potent) for the following entry. "TATATCTTCCTCTCCACTGAGT"
-0.425
